Hi there, I'd appreciate the recorded pKd for every entry that follows.
Biological target: T1, SARS-CoV-2 spike receptor binding domain, native (SARS-CoV-2, UniProt P0DTC2 330-532)
T1 construct: range 330-532
Assay: BLI, RBD on AR2G biosensor, mAb as analyte
FYI, pKd means -log10 of a concentration in mol per litre.

For antibody 158 (antibody, V domains shown, also called mAb 158) VH: EVQLLESGGDLIQPGGSLRLSCAASGVTVSSNYMSWVRQAPGKGLEWVSIIYPGGSTFYADSVKGRFTISRDNSKNTLYLQMHSLRAEDTAVYYCARDLGSGDMDVWGKGTTVTVSS VL: DIVMTQSPSFLSASVGDRVTITCRASQGISSYLAWYQQKPGKAPKLLIQAASTLQSGVPSRFSGSGSGTEFTLTISSLQPEDFATYYCQQLNSYRYTFGQGTKVEIK , write its pKd.
8.72

Assign pKd to the following record: antibody 398 (antibody, V domains shown, also called mAb 398) VH: QVQLVESGGGLVQPGGSLRLSCAASGFTVSSNYMTWVRQAPGKGLEWVSVIYSGGSTYYADSVKGRFTISRDNSKNTLYLQMNSLRADDTAVYYCARDSTADYDFWSGYYVGAFHIWGQGTMVTVSS VL: QTVLTQPASVSGSPGQSITISCTGTSSDVGGYNYVSWYQQHPGKAPKLMIYEVTKRPSGVPDRFSGSKSGNTASLTVSGLQAEDEADYYCSSYAGSNNWVFGGGTKLTVL
8.33

Check the records and state pKd for antibody 88 (antibody, V domains shown, also called mAb 88) VH: QLQLQESGPGLVKPSQTLSLTCTVSGGSISSGSYNWTWIRQPAGKGLEWIGRIYNSGSTNYNPSLKSRVTISVDTSKNQLSLKVRSVTAADTAVYYCARHCSGGTCYPKYYYGMDVWGQGTTVTVSS VL: QSALTQPPSVSEAPRQRVTISCSGSSSNIGNNAVNWYQQFPGKAPKLLIYYDDLLPSGVSDRFSGSKSGTSASLAISGVQSEDEADYYCAAWDDSLNVVVFGGGTKLTVL
8.54

State, in one line, measured pKd of antibody 318 (antibody, V domains shown, also called mAb 318) VH: QVQLVQSGPEVKKPGTSVKVSCKASGFTLTSSAMQWVRQARGQRLEWIGWIVVGSGNTNYAQKFQERVTITRDMSTSTAYMELSSLRSEDTAVYYCAAGRGYNSDFDYWGQGTLVTVSS VL: AIRMTQSPGTLSLSPGERATLSCRASQSVSSSYLAWYQQRPGQAPRLLIYGTSSRATGIPDRFSGSGSGTDFTLTISRLEPEDFAVYYCQQYGYSVYTFGQGTKVDIK
8.35

Identify pKd associated with the binder antibody 269 (antibody, V domains shown, also called mAb 269) VH: QVQLVESGGGLIQPGGSLRLSCAASGLTVNRNYMSWIRQAPGKGLEWVSVIYSGGSTFYADSVKGRFTISRDNSKNTLSLQMNSLRAEDTAIYYCARDFYEGSFDIWGQGTMVTVSS VL: AIQLTQSPSFLSASIGDRVTITCRASQGISSYLAWYQQKPGKAPKLLIYAASTLQSGVPSRFSGSGSGTEFTLTISSLQPEDFASYYCQQLNSYPAPVFGPGTKVDIK
9.12
